MIC values, listed per item
- System: Ps. aeruginosa IFO3445
- run_description: Antibacterial activity (MIC), agar dilution
- Type: cell-based
- conditions: Pseudomonas aeruginosa; Ps. aeruginosa IFO3445; 10^6 cells per ml; 37° C., 20 hours; read-out: MIC
Dear colleague, please send the value followed by its unit.

Recorded MIC, per entry:
{"columns": ["molecule", "MIC"],
 "data": [
  ["CC=Cc1cc(=O)c(C(=O)O)cn1-c1ccc(O)cc1C", "25 µg/mL"],
  ["O=C(O)c1cn(-c2ccc(O)cc2)c(-c2ccc(N3CCCC3)cc2)cc1=O", "6.25 µg/mL"],
  ["O=C(O)c1cn(-c2ccc(F)cc2)c(C=Cc2cccnc2)cc1=O [drawing 205]", "25 µg/mL"],
  ["COc1ccc(-c2cc(=O)c(C(=O)O)cn2-c2ccc(O)cc2C)cc1F", "12.5 µg/mL"],
  ["Nc1ccc(-c2cc(=O)c(C(=O)O)cn2-c2ccc(F)cc2)cc1", "6.15 µg/mL"]
]}

Task item: Which MIC value belongs to Cc1cc(O)ccc1-n1cc(C(=O)O)c(=O)cc1-c1ccc(-c2cccs2)cc1 ?
Reply: 6.25 µg/mL

Task item: Another molecule: CN(C)c1ccc(-c2cc(=O)c(C(=O)O)cn2-c2ccc(O)cc2F)cc1
Reply: 1.56 µg/mL

Task item: Try this molecule next: Cc1cc(F)ccc1-n1cc(C(=O)O)c(=O)cc1C1CC=CCC1 (stereo not shown)
Reply: 100 µg/mL

Task item: What about Cn1ccc2cc(-c3cc(=O)c(C(=O)O)cn3-c3ccc(F)cc3)ccc21 ?
Reply: 12.5 µg/mL

Task item: # repeat for O=C(O)c1cn(-c2ccc(F)cc2)c(-c2sccc2-c2ccc([N+](=O)[O-])cc2)cc1=O
Reply: 12.5 µg/mL
